# Test system: HCT-116 colon
# ASSAY_OVERVIEW: NCI tumour cell line growth inhibition, 48 h
VALUE_KIND: TGI

MOLECULE	TGI
NC(=O)C(c1ccccc1)N1OC2C(=O)N(c3cccc4ccccc34)C(=O)C2C1c1c2ccccc2c(Cl)c2ccccc12 (centres undefined)	3.05 µM

// each listed molecule needs a value for TGI
1. C1CCN(C2OC3C(COC3N3CCCCC3)OC2OC2CCO[C@@H]2N2CCCCC2)CC1 (some centres undefined)
2. Cc1cc(N2CCCC2)nc(NC2CCCC(Nc3ccnc4cc(Cl)ccc34)C2)n1 (centres undefined)
3. O=C(CC12CC3CC(CC(C3)C1)C2)NCCOCCOCCOCCNC(=O)c1cc2c(o1)C(=O)c1ccccc1C2=O
4. COc1cc(C2c3cc4c(cc3OC(Nc3ccccc3)C2C)OCO4)cc(OC)c1OC (centres undefined)
5. COc1cc(NP(=O)(Oc2ccccc2)Oc2ccccc2)ccc1Nc1c2ccccc2nc2c1[nH]c1ccccc12
6. O=c1[nH]c(=S)[nH]n1C(=S)n1[nH]c(=S)[nH]c1=O
7. Cc1cc(N2CCN(c3ccnc4cc(Cl)ccc34)CC2)nc(NC2CCCCC2)n1

OUT:
1. > 100 µM
2. 1.68 µM
3. 6.33 µM
4. > 33 µM
5. 63.8 µM
6. > 100 µM
7. 2.91 µM

Okay, here is my list. What is TGI for each of these?
1. Nc1ncn(C2C=C(CO)C(O)C2O)c(=O)n1 (centres undefined)
2. COc1ccc(/C=C2\CCCCCC2=O)cc1
3. O=c1c2cccnc2cc(-c2ccccc2)n1CCO
4. Cc1ccc(NC(=O)CCC/C(CC(=O)c2ccc(Br)cc2)=N/NC(=O)CC#N)cc1
5. COc1ccc(CNc2c3ccccc3nc3ccc(OC)cc23)cc1
6. Cc1nn(-c2ccccc2)c2[nH]c(=S)cnc12
7. CCN(CC)C(=S)SNCc1ccc(S(N)(=O)=O)cc1
8. COC(=O)C1[C@@H](C(=O)OC)C12C=Cc1ccccc1C=C2 (some centres undefined)

OUT:
1: > 100 µM; 2: > 100 µM; 3: > 100 µM; 4: > 100 µM; 5: 11.6 µM; 6: > 100 µM; 7: 27.4 µM; 8: > 100 µM

Would you be so kind as to report TGI for each listed record?
1. O=[N+]([O-])c1ccc(N=Nc2c(O)ccc3ccccc23)cc1
2. CCCCCCCCCCCCC(O)C1CCC(C(O)CCCCCCC(O)CCCCCCCC2=CC(C)OC2=O)O1 (centres undefined)
3. CNn1c(C)n[nH]c1=O
4. O=C1NC(=S)NC(=O)C1=Cc1cccc2cc3ccccc3cc12
5. O=c1oc2ccccc2nc1/C=C(\O)c1ccc([N+](=O)[O-])cc1

OUT:
["> 100 µM", "> 100 µM", "> 100 µM", "3.74 µM", "> 100 µM"]
